MEASUREMENT_TARGET: p110α(E545K)/p85α (Homo sapiens, UniProt P42336, E545K)
Construct: purchased SignalChem P27-15H
Sequence (P42336 whole entry E545K): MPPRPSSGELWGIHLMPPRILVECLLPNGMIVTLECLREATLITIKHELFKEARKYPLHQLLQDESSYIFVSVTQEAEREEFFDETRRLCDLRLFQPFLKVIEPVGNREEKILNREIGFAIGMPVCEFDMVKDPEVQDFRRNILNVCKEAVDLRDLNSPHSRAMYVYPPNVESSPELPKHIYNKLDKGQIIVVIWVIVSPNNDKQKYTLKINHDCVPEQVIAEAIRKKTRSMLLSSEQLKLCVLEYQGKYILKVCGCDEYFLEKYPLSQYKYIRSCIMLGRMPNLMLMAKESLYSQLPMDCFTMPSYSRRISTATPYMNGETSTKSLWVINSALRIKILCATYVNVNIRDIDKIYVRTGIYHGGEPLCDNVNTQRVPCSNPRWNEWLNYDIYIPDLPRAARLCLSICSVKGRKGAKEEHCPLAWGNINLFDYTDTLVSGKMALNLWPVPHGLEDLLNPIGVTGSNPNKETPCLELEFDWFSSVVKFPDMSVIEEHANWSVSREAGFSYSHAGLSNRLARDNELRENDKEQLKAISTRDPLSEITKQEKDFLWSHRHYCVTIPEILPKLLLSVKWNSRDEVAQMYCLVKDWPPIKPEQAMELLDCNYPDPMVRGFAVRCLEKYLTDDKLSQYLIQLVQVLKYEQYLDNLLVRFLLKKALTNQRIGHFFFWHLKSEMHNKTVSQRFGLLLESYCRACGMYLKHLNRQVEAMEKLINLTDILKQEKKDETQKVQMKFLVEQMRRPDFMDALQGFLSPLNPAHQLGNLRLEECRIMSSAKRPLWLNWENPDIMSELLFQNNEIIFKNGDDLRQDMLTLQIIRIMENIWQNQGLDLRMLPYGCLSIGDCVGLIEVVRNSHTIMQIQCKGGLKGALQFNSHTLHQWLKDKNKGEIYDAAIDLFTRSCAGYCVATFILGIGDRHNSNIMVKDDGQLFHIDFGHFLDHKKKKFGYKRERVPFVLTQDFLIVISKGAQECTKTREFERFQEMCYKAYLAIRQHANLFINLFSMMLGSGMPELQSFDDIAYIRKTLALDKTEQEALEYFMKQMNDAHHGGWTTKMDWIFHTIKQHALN
Sequence (P27986 whole entry partner): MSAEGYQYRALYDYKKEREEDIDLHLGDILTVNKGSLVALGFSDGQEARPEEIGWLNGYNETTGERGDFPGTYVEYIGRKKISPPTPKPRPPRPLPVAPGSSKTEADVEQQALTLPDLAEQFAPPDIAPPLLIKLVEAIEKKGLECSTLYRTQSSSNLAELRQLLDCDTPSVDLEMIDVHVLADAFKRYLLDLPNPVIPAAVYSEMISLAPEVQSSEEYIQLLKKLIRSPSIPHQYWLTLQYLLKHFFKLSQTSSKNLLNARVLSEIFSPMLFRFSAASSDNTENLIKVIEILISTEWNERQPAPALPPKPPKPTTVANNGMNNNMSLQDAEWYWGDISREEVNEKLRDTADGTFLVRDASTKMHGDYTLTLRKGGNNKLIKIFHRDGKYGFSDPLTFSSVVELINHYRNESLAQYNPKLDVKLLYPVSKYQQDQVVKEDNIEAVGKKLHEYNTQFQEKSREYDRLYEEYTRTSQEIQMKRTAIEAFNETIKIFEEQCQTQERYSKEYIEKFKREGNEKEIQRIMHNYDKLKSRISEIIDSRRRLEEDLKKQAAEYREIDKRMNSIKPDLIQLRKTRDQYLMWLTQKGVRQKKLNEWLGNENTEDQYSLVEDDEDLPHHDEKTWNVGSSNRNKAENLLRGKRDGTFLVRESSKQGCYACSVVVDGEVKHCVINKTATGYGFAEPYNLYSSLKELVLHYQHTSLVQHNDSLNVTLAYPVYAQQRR
ASSAY_TEXT: Kinase enzyme assay (ADP-Glo), PI3Kα (E545K)
Type: biochemical
REPORTED_CONDITIONS: read-out: In Vitro Enzymatic IC50 PI3Kα (E545K)
pIC50: −log10 of the molar value.
Kindly supply the reported pIC50 values for the records listed here.

>>> value_reported("CCn1c(CN(C)Cc2ccc(C(=O)NO)cc2)nc2c(N3CCOCC3)nc(-c3cnc(N)nc3)nc21")
"7.00 to 8.00"

Below are 3 compounds. Give each one its pIC50.
1. CC(C)n1cnc2c(N3CCOCC3)nc(-c3ccc(OCCCCCCC(=O)NO)cc3)nc21
2. CC(C)n1cnc2c(-c3cccc(OCCCC(=O)NO)c3)nc(N3CCOCC3)nc21
3. CC(C)n1cnc2c(-c3cnc(N)nc3)nc(NCCCCCC(=O)NO)nc21

Solution:
7.00 to 8.00
5.00 to 6.00
7.00 to 8.00

====

Kindly supply the reported pIC50 values for the records listed here.
Test system: 4T1
ASSAY_TEXT: cells
REPORTED_CONDITIONS: Mus musculus, 4T1, read-out: In Vitro Cellular IC50 4T1
pIC50: −log10 of the molar value.

>>> value_reported("CS(=O)(=O)N1CCN(Cc2cc3nc(-c4cccc5[nH]ncc45)nc(N4CCOCC4)c3s2)CC1 [GDC-0941, reference compound]")
"5.00 to 5.70"
>>> value_reported("O=C(CCCOc1cccc(-c2nc(N3CCOCC3)nc3c2ncn3C2CCCC2)c1)NO [compound 100]")
"5.70 to 6.30"
>>> value_reported("CCn1c(CN(C)Cc2ccc(C(=O)NO)cc2)nc2c(N3CCOCC3)nc(-c3cnc(N)nc3)nc21 [compound 7]")
"5.00 to 5.70"

Here is another compound to look at.
Sample CC(C)n1cnc2c(-c3cccc(OCCCC(=O)NO)c3)nc(N3CCOCC3)nc21 [compound 1] ; pIC50 observed: 5.70 to 6.30

====

Test system: MCF7
ASSAY_TEXT: Anti-proliferative assay (cellular IC50), MCF7
REPORTED_CONDITIONS: Homo sapiens, MCF7, 72 h, read-out: In Vitro Cellular IC50 MCF7
Kindly supply the reported IC50 values for the records listed here.

>>> value_reported("O=C(CCCOc1cccc(-c2nc(N3CCOCC3)nc3c2ncn3C2CCCC2)c1)NO")
"< 500 nM"
>>> value_reported("Cc1c(CN2CCN(C(=O)[C@H](C)O)CC2)sc2c(N3CCOCC3)nc(-c3cnc(N)nc3)nc12 [GDC-0980, reference compound]")
"2000 to 10000 nM"
>>> value_reported("CCN(CC)c1nc(-c2cccc(OCCCC(=O)NO)c2)c2ncn(C(C)C)c2n1")
"2000 to 10000 nM"
>>> value_reported("CCn1c(CN(C)Cc2ccc(/C=C/C(=O)NO)cc2)nc2c(N3CCOCC3)nc(-c3ccc(OC)nc3)nc21")
"2000 to 10000 nM"
>>> value_reported("CC(C)n1ccc2c(-c3cccc(OCCCC(=O)NO)c3)nc(N3CCCC3)nc21")
"500 to 2000 nM"

Below are 7 molecules. Give each one its IC50.
1. CC(C)n1cnc2c(-c3cccc(OCCCC(=O)NO)c3)nc(N3CCOCC3)nc21
2. CCC(CC)n1cnc2c(-c3cccc(OCCCC(=O)NO)c3)nc(N3CCOCC3)nc21
3. CC(C)n1cnc2c(-c3ccc(F)c(OCCCC(=O)NO)c3)nc(N3CCOCC3)nc21
4. O=C(CCCCCCn1cnc2c(N3CCC(O)CC3)nc(-c3cccc(CO)c3)nc21)NO
5. CCn1c(CN(C)Cc2ccc(C(=O)NO)cc2)nc2c(N3CCOCC3)nc(-c3cnc(N)nc3)nc21
6. CCn1c(CN(C)Cc2ccc(C(=O)NO)cc2)nc2c(N3CCOCC3)nc(-c3ccc(OC)nc3)nc21
7. CC(C)n1cnc2c(N3CCOCC3)nc(-c3cccc(NC(=O)CCCCCCC(=O)NO)c3)nc21

Solution:
1. 500 to 2000 nM
2. < 500 nM
3. 500 to 2000 nM
4. 500 to 2000 nM
5. < 500 nM
6. 500 to 2000 nM
7. 500 to 2000 nM

Below are 2 molecules. Give each one its IC50.
1. CS(=O)(=O)N1CCN(Cc2cc3nc(-c4cccc5[nH]ncc45)nc(N4CCOCC4)c3s2)CC1 [GDC-0941, reference compound]
2. O=C(CCCCCCn1cnc2c(N3CCC(CO)CC3)nc(-c3cccc(CO)c3)nc21)NO

Solution:
< 500 nM
500 to 2000 nM

====

Kindly supply the reported pIC50 values for the records listed here.
System: K-562
ASSAY_TEXT: Anti-proliferative assay (cellular IC50), K-562
REPORTED_CONDITIONS: Homo sapiens, K562, 72 h, read-out: In Vitro Cellular IC50 K-562
pIC50: −log10 of the molar value.

>>> value_reported("CCN(CC)c1nc(-c2cccc(OCCCC(=O)NO)c2)c2ncn(C(C)C)c2n1")
"5.00 to 5.70"
>>> value_reported("CC(C)n1cnc2c(-c3cccc(OCCCC(=O)NO)c3)nc(N3CCOCC3)nc21")
"5.70 to 6.30"

Below are 2 compounds. Give each one its pIC50.
1. CC(C)n1c(N2CCC(C(=O)NO)CC2)nc2c(N3CCOCC3)nc(-c3cnc(N)nc3)nc21
2. CC(C)n1cnc2c(N3CCOCC3)nc(-c3cccc(OCCCCCCC(=O)NO)c3)nc21

Solution:
1: 5.00 to 5.70; 2: 5.00 to 5.70

Below are 4 compounds. Give each one its pIC50.
1. CC(C)n1cnc2c(N3CCOCC3)nc(-c3cccc(NC(=O)CCCCCCC(=O)NO)c3)nc21
2. CCn1c(CN2CCC(C(=O)NO)CC2)nc2c(N3CCOCC3)nc(-c3cnc(N)nc3)nc21
3. CCn1c(CN(C)Cc2ccc(/C=C/C(=O)NO)cc2)nc2c(N3CCOCC3)nc(-c3ccc(OC)nc3)nc21
4. CCn1c(CN(C)Cc2ccc(C(=O)NO)cc2)nc2c(N3CCOCC3)nc(-c3ccc(OC)nc3)nc21

Solution:
["5.70 to 6.30", "< 5.00", "5.00 to 5.70", "5.00 to 5.70"]

====

Tested on: Raji
ASSAY_TEXT: Anti-proliferative assay (cellular IC50), Raji
REPORTED_CONDITIONS: Homo sapiens, read-out: In Vitro Cellular IC50 Raji
VALUE_TYPE: IC50

Illustrative cases are given below, each with its answer.
>>> value_reported("O=C(CCCOc1cccc(-c2nc(N3CCOCC3)nc3c2ncn3C2CCCC2)c1)NO [compound 100]")
"< 500 nM"
>>> value_reported("CS(=O)(=O)N1CCN(Cc2cc3nc(-c4cccc5[nH]ncc45)nc(N4CCOCC4)c3s2)CC1 [GDC-0941, reference compound]")
"2000 to 10000 nM"

Sample CC(C)n1cnc2c(-c3cccc(OCCCC(=O)NO)c3)nc(N3CCOCC3)nc21 [compound 1] ; IC50 observed: 500 to 2000 nM

====

Reported IC50, PI3Kα (Homo sapiens, UniProt P42336).

>>> value_reported("CC(C)n1cnc2c(-c3cccc(OCCCC(=O)NO)c3)nc(N3CCOCC3)nc21")
"1000 to 10000 nM"
>>> value_reported("CCn1c(CN(C)Cc2ccc(/C=C/C(=O)NO)cc2)nc2c(N3CCOCC3)nc(-c3cccc(C(N)=O)c3)nc21")
"100 to 1000 nM"
>>> value_reported("CCn1c(CN(C)Cc2ccc(/C=C/C(=O)NO)cc2)nc2c(N3CCOCC3)nc(-c3cccc(NC(C)=O)c3)nc21")
"100 to 1000 nM"
>>> value_reported("CC(C)n1cnc2c(-c3cnc(N)nc3)nc(NCCCCCC(=O)NO)nc21")
"10 to 100 nM"

Below are 2 compounds. Give each one its IC50.
1. CC(C)n1cnc2c(-c3cccc(OCC(=O)NO)c3)nc(N3CCOCC3)nc21
2. CCn1c(CNCCCCCC(=O)NO)nc2c(N3CCOCC3)nc(-c3cnc(N)nc3)nc21

Solution:
1: 1000 to 10000 nM; 2: 10 to 100 nM

====

Tested on: HepG2
ASSAY_TEXT: Anti-proliferative assay (cellular IC50), HepG2
REPORTED_CONDITIONS: Homo sapiens, HepG2, 72 h, read-out: In Vitro Cellular IC50 HepG2
pIC50: −log10 of the molar value.
VALUE_TYPE: pIC50

>>> value_reported("CCC(CC)n1cnc2c(-c3cccc(OCCCC(=O)NO)c3)nc(N3CCOCC3)nc21")
"5.70 to 6.30"

Below are 3 compounds. Give each one its pIC50.
1. CC(C)n1cnc2c(-c3ccc(F)c(OCCCC(=O)NO)c3)nc(N3CCOCC3)nc21
2. CCn1c(CN(C)Cc2ccc(C(=O)NO)cc2)nc2c(N3CCOCC3)nc(-c3ccc(OC)nc3)nc21
3. CS(=O)(=O)N1CCN(Cc2cc3nc(-c4cccc5[nH]ncc45)nc(N4CCOCC4)c3s2)CC1 [GDC-0941, reference compound]

Solution:
1: 5.70 to 6.30; 2: 5.70 to 6.30; 3: < 5.00

Each recorded value in this set is attributed to patent US9957270B2.
